Target: UniProtKB P19099
Assay: G-402 cellular enzyme assay, human CYP11B2 (aldosterone release, HTRF)
Settings: G-402 cells, 1 μM Deoxycorticosterone
pEC50: −log10 of the molar value.
Param threshold (6) applies to pEC50; output 1 when value >= threshold, -1 when value < threshold.

| molecule | label value |
| --- | --- |
| CCC(=O)N[C@H]1CCCc2c1cncc2N1C(=O)c2ccc(Cl)cc2[C@@H]1C (single isomer, unassigned) | 1 |
| O=C1c2ccc(Cl)cc2CCN1c1cncc(CCO)c1 | 1 |
| CCC1c2cc(Cl)ccc2C(=O)N1c1cncc(CNS(=O)(=O)CC)c1 (single isomer, unassigned) | 1 |
| O=C1c2ccc(Cl)cc2CCN1c1cncc(NS(=O)(=O)c2ccccc2)c1 | -1 |

====

Target: human CYP11B2 (Homo sapiens, UniProt P19099)
Sequence (P19099 25-503): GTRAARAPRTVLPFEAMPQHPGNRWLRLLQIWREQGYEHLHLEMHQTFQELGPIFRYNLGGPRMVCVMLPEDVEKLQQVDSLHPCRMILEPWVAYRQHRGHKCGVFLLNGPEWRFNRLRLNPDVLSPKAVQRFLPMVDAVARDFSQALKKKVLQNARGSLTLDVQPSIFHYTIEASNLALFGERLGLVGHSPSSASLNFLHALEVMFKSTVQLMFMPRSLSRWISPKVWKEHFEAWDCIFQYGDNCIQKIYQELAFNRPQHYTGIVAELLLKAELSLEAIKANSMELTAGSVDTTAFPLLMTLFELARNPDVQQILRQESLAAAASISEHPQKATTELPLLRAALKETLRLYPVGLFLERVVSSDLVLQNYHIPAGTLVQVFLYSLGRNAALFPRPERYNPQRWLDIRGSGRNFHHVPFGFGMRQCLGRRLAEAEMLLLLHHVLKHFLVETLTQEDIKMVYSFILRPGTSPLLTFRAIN
Test: G-402 cellular enzyme assay, human CYP11B2 (aldosterone release, HTRF)
Conditions: G-402 cells, 1 μM Deoxycorticosterone
Source text: Herein we identified the use of the G-402 cell line as a host cell to ectopically express (transiently or stably) enzymes of the CYP11 family. […] Importantly the identified cell line G-402 expresses co-factors (adrenodoxin and adrenodoxin reductase) important for the activity of the CYP11 family and no relevant enzyme activity of the CYP11 family (in comparison to H295R cells) was detected in these cells. […]
pEC50: −log10 of the molar value.
Values of pEC50 greater than or equal to 7 map to 1.0; values below map to 0.0.

| compound | label value |
| --- | --- |
| Cc1cccnc1C(=O)NCc1cncc(N2C(=O)c3ccc(Cl)cc3C2(C)C)c1 | 1.0 |
| O=C1c2ccc(Cl)cc2CCN1c1cncc(Cn2cc3ccccc3n2)c1 | 1.0 |
| CC(C)OCc1cncc(N2CCc3cc(Cl)ccc3C2=O)c1 | 1.0 |
| CC(C)OCc1ccncc1N1CCc2cc(Cl)ccc2C1=O | 0.0 |
| O=C1c2ccc(Cl)cc2CCN1c1cnccc1C(O)c1ccc(F)cc1 (stereo not drawn) | 0.0 |
| O=C1c2ccc(Cl)cc2CCN1c1cncc(-c2ccccc2C(F)(F)F)c1 | 1.0 |
| Cn1nccc1-c1cncc(N2C(=O)c3ccc(Cl)cc3C2(C)C)c1 | 1.0 |
| CC1Cc2cc(Cl)ccc2C(=O)N1c1cncnc1 (stereo not drawn) | 0.0 |
| CC1(C)c2cc(F)ccc2C(=O)N1c1cncc(CNS(C)(=O)=O)c1 | 1.0 |
| CCC(=O)N[C@@H]1CCc2c1cncc2N1C(=O)c2ccc(Cl)cc2[C@H]1C (single isomer, unassigned) | 1.0 |
| O=C1c2ccc(Cl)cc2C2(CC2)N1c1cncc(OC(F)F)c1 | 1.0 |
| CS(=O)(=O)NC1CCc2c1cncc2N1Cc2cc(Cl)ccc2C1=O (single isomer, unassigned) [Example 334] | 0.0 |
| CNC(=O)c1cncc(N2CCc3cc(Cl)ccc3C2=O)c1 | 0.0 |
| CN(C)C(=O)c1cncc(N2CCc3cc(Cl)ccc3C2=O)c1 | 0.0 |
| CCC(=O)NCc1cncc(N2C(=O)c3ccc(Cl)cc3C2(C)C)c1 | 0.0 |
| O=C1c2ccc(Cl)cc2CCN1c1cncc(CN2C(=O)CC[C@H]2CO)c1 | 0.0 |
| O=C1c2ccc(Cl)cc2CCN1c1cncc(CN2CCC(O)C2)c1 (stereo not drawn) | 1.0 |
| CCC(=O)NC1CCCc2c1cncc2N1CCc2cc(Cl)ccc2C1=O (single isomer, unassigned) [Example 329] | 0.0 |
| O=C(c1cncc(N2CCc3cc(Cl)ccc3C2=O)c1)N1CCOCC1 | 0.0 |
| Cn1nccc1Cc1cncc(N2CCc3cc(Cl)ccc3C2=O)c1 | 1.0 |
| CCS(=O)(=O)N1CC[C@H](Oc2cncc(N3C(=O)c4ccc(Cl)cc4C3(C)C)c2)C1 | 1.0 |
| COC[C@@H]1CCCN1Cc1cncc(N2Cc3cc(Cl)ccc3C2=O)c1 | 0.0 |
| CC1(C)c2cc(Cl)ccc2C(=O)N1c1cncc(CNC(=O)c2ncccc2Cl)c1 | 1.0 |
| CS(=O)(=O)NC1CCc2c1cncc2N1CCc2cc(Cl)ccc2C1=O (single isomer, unassigned) [Example 331] | 0.0 |
| CC(=O)N[C@H]1CCCc2c1cncc2N1C(=O)c2ccc(Cl)cc2[C@H]1C (single isomer, unassigned) | 0.0 |
| O=C1c2ccc(Cl)cc2CCN1c1cncc(Cn2ncc3ccccc32)c1 | 1.0 |
